The values you see were collected from ChEMBL document CHEMBL1142195.

system: Human immunodeficiency virus 1; experiment: Antiviral activity against HIV1 isolate with RT G190S mutation; assay type: functional, organism-based
readout-kind: EC50
Answer format reminder: number followed by unit.

{"columns": ["molecule", "experimental-result"],
 "data": [
  ["O=C1Nc2ccc(Cl)cc2[C@@](C#CC2CC2)(C(F)(F)F)O1 [EFAVIRENZ]", "14.3 nM"]
]}

Next molecule, EC50 to be filled in.
For the molecule NS(=O)(=O)c1ccc(NC(=O)CSc2nnc(Br)n2-c2ccc(C3CC3)c3ccccc23)c(Cl)c1 , give its reported EC50.
0.23 nM

----------
biological target: Human immunodeficiency virus type 1 reverse transcriptase (Human immunodeficiency virus 1); experiment: Inhibition of HIV1 reverse transcriptase
readout-kind: pIC50
For clarity, pIC50 is expressed as the negative log10 of concentration in mol/L.

For the compound NS(=O)(=O)c1ccc(NC(=O)CSc2nnc(Br)n2-c2ccc(C3CC3)c3ccccc23)c(Cl)c1 , give its reported pIC50.
8.40

----------
Listing of entries alongside the reported EC50.
test system: Human immunodeficiency virus 1; experiment: Antiviral activity against HIV1 isolate with RT Y181C mutation; type: functional, organism-based
Answer format reminder: number followed by unit.

{"columns": ["smiles-entry", "EC50"],
 "data": [
  ["O=C1Nc2ccc(Cl)cc2[C@@](C#CC2CC2)(C(F)(F)F)O1", "0.33 nM"]
]}

For the molecule NS(=O)(=O)c1ccc(NC(=O)CSc2nnc(Br)n2-c2ccc(C3CC3)c3ccccc23)c(Cl)c1 , give its reported EC50.
0.23 nM

----------
Listing of entries alongside the reported EC50.
tested on: Human immunodeficiency virus 1; assay: Antiviral activity against HIV1 isolate with RT A98G mutation; type: functional, organism-based
Hi! Could you send only the number? It should be in nM, unit omitted.

{"columns": ["compound", "unit-name", "EC50"],
 "data": [
  ["O=C1Nc2ccc(Cl)cc2[C@@](C#CC2CC2)(C(F)(F)F)O1 [EFAVIRENZ]", "nM", 0.64]
]}

Next compound, EC50 to be filled in.
For the compound NS(=O)(=O)c1ccc(NC(=O)CSc2nnc(Br)n2-c2ccc(C3CC3)c3ccccc23)c(Cl)c1 , give its reported EC50.
0.3

----------
assay: Plasma concentration in dog at 20 mg/kg, po after 12 hrs; assay type: ADME, organism-based, Canis lupus familiaris; design: dose 20 mg/kg, route oral
readout-kind: concentration at 12 h (ng/mL)
Hi! Could you send only the number? It should be in ng/mL, unit omitted.

For the compound NS(=O)(=O)c1ccc(NC(=O)CSc2nnc(Br)n2-c2ccc(C3CC3)c3ccccc23)c(Cl)c1 , give its reported concentration at 12 h.
742

----------
experiment: Plasma concentration in dog at 10 mg/kg, iv after 12 hrs; type: ADME, organism-based, Canis lupus familiaris; design: dose 10 mg/kg, route intravenous
readout-kind: concentration at 12 h
Answer format reminder: number followed by unit.

For the compound NS(=O)(=O)c1ccc(NC(=O)CSc2nnc(Br)n2-c2ccc(C3CC3)c3ccccc23)c(Cl)c1 , give its reported concentration at 12 h.
283 ng/mL

----------
system: Human immunodeficiency virus 1; test: Antiviral activity against HIV1 isolate with RT K103N-Y188L mutation; format: functional, organism-based
readout-kind: pEC50
For clarity, pEC50 is expressed as the negative log10 of concentration in mol/L.

For the molecule NS(=O)(=O)c1ccc(NC(=O)CSc2nnc(Br)n2-c2ccc(C3CC3)c3ccccc23)c(Cl)c1 , give its reported pEC50.
8.97
